# target-desc: HLA-A*02:01 (Homo sapiens, UniProt P04439, D140Y/D185E/D98H/E176V/E277Q/G131W/G231S/I119V/I121R/I166T/I218V/L300P/L318F/N151K/N90K/P208A/P217A/Q86G/Q94H/R138H/R169H/T345S)
# assay-text: MHC binding assay (UV-ligand exchange, beta2m ELISA, peptide exchange yield)
# experimental-conditions: binding of HLA-class I restricted peptides to HLA-A*02:01, ranged by peptide exchange yield (UV-ligand exchange, β2m ELISA)
readout-type: Peptide exchange

// below: answered substances
substance: 43 (VLSSLEINI; listed as Homo sapiens) [compound 43]
Peptide exchange: ″++″ (≥20% = ++)
//
substance: 558 (GLLENIPRV; listed as Homo sapiens) [compound 558]
Peptide exchange: ″+++″ (≥50% = +++)
//
substance: 499 (KIFDIDEAEEGV; listed as Homo sapiens) [compound 499]
Peptide exchange: ″++″ (≥20% = ++)
//
substance: 380 (TLIEDEIATI; listed as Homo sapiens) [compound 380]
Peptide exchange: ″++″ (≥20% = ++)
//
substance: 351 (SLIPNLRNV; listed as Homo sapiens) [compound 351]
Peptide exchange: ″+++″ (≥50% = +++)
//
substance: 332 (YLISELEAA; listed as Homo sapiens) [compound 332]
Peptide exchange: ″+++″ (≥50% = +++)
//
substance: 74 (ALLDPEVLSIFV; listed as Homo sapiens) [compound 74]
Peptide exchange: ″+++″ (≥50% = +++)
//
substance: 312 (IISDLTIAL; listed as Homo sapiens) [compound 312]
Peptide exchange: ″+++″ (≥50% = +++)
//
substance: 267 (ALQDFLLSV; listed as Homo sapiens) [compound 267]
Peptide exchange: ″+++″ (≥50% = +++)
//
substance: 486 (AVMESIQGV; listed as Homo sapiens) [compound 486]
Peptide exchange: ″+++″ (≥50% = +++)

q: Value lookup for Peptide exchange; key = 78 (SLFSSLEPQIQPV; listed as Homo sapiens) [compound 78]
a: ″+++″ (≥50% = +++)

q: Follow-up item: 198 (KTINKVPTV; listed as Homo sapiens) [compound 198]
a: ″+++″ (≥50% = +++)

q: // next record 398 (KLLEEDGTIITL; listed as Homo sapiens) [compound 398]
a: ″++″ (≥20% = ++)

q: Moving on to 94 (YLIDIKTIAI; listed as Homo sapiens) [compound 94]
a: ″++″ (≥20% = ++)

q: Quick one: 519 (GLLHLTLLL; listed as Homo sapiens) [compound 519]
a: ″+++″ (≥50% = +++)

q: Now consider 408 (VLDDSIYLV; listed as Homo sapiens) [compound 408] and answer again.
a: ″++″ (≥20% = ++)

q: Subsequent entry: 342 (HIYDKVMTV; listed as Homo sapiens) [compound 342]
a: ″+++″ (≥50% = +++)

q: Consider next the substance 525 (VLLEAGEGLVTI; listed as Homo sapiens) [compound 525] in the same way.
a: ″+++″ (≥50% = +++)

q: Next substance: 372 (TMLLNIPLV; listed as Homo sapiens) [compound 372]
a: ″++″ (≥20% = ++)

q: Likewise for 570 (ALANQIPTV; listed as Homo sapiens) [compound 570] ?
a: ″++″ (≥20% = ++)

q: Another substance to look at: 223 (ALLENIALYL; listed as Homo sapiens) [compound 223]
a: ″+++″ (≥50% = +++)

q: Next: 103 (TLAEEVVAL; listed as Homo sapiens) [compound 103]
a: ″+++″ (≥50% = +++)
